system-under-test: T1, recombinant human CD123-Fc (human, UniProt P26951 19-305)
T1 construct: not shown: Fc part of CD123-Fc
T1 sequence: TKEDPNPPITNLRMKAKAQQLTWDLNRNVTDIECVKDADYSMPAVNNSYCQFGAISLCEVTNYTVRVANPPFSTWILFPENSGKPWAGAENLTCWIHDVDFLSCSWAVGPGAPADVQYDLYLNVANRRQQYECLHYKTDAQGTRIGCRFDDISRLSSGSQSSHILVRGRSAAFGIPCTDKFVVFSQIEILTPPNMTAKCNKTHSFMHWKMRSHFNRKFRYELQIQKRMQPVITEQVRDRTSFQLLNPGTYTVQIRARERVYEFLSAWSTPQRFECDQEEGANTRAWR
test-name: phage ELISA, captured CD123-Fc
Field: ELISA_avg. Provide a value for each of the binders that follow.
Answers are plain numbers, in ratio A450 target/IgG1-Fc.

Worked examples, 2 binders total:
binder	unit-symbol	endpoint-value
SEQ ID NO: 618 (designed binder, D domain, on phage) MGSWWEFNARLDAIEDRLMALGGSEAELAYFEDIIASFENILQQYKGKGNPEVEALWYEAYAIEKELNAYRHN	ratio A450 target/IgG1-Fc	3.4
SEQ ID NO: 389 (designed binder, D domain, on phage) MGSWWEFIWRLEAIEQRLWALGGSEAELAAFEKEIAAFESELQAYKGKGNPEVEVLRSRAADIRTDLQAYRHN	ratio A450 target/IgG1-Fc	4

# lookup: ELISA_avg of SEQ ID NO: 501 (designed binder, D domain, on phage) MGSWNFFKYDLADIMAYLEALGGSEAELAFFEDEIANFEHDLQKYKGKGNPEVEALRKEAAAIRDELQAYRHN 4.4
